# target_or_system: rat TAAR1 (Rattus norvegicus (Rat), UniProt Q923Y9)
# Sequence (Q923Y9 whole entry): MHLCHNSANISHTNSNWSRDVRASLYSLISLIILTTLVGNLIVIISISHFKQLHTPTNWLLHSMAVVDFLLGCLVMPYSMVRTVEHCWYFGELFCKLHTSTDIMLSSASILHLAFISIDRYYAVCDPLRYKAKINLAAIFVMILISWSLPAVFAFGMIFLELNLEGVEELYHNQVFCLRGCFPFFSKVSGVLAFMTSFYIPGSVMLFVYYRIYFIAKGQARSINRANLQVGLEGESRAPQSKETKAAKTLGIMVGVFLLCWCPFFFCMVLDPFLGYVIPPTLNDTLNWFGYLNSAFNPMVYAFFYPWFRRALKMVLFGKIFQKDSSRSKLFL
# assay_text: Radioligand binding assay on rat TAAR1
# condition_label: rat TAAR1, HEK-293 membranes, second value of cell mouse/rat; read-out: Ki (μM) rat
Counter-ions that a name gives are not always drawn.
measured_property: Ki

{"compound": "O=C(Nc1ccc(C2CNCCO2)cc1)c1ccc(Cl)cc1F (racemic) [Example 146, hydrochloride]", "result": "0.001 µM"}
{"compound": "O=C(Nc1ccc(C2CCCNC2)cc1)c1ccc(F)cn1 (racemic) [Example 180, hydrochloride]", "result": "0.0131 µM"}
{"compound": "O=C(Nc1ccc(C2CCNC2)cc1)c1ccc(Cl)nc1 (racemic) [Example 43, hydrochloride]", "result": "0.0242 µM"}
{"compound": "O=C(Nc1ccc(C2CCCNC2)cc1)c1ccc(Cl)cc1Cl (racemic) [Example 99, hydrochloride]", "result": "0.0501 µM"}
{"compound": "O=C(Nc1ccc(CC2CCCN2)cc1)c1ccc(Cl)cc1 (racemic) [Example 107, hydrochloride]", "result": "0.0445 µM"}
{"compound": "O=C(Nc1ccc(C2CCNC2)cc1)Nc1ccc(Cl)nc1 (racemic) [Example 26, hydrochloride]", "result": "0.0279 µM"}
{"compound": "O=C(Nc1ccc(C2CNCCO2)cc1)c1cnc(-c2ccccc2)s1 (racemic) [Example 231, hydrochloride]", "result": "0.0014 µM"}
{"compound": "O=C(Nc1ccc(CCC2CCCCN2)cc1)c1ccc(Cl)cc1 (racemic) [Example 169, hydrochloride]", "result": "0.0027 µM"}
{"compound": "Cc1cccc(C(=O)Nc2ccc(C3CNCCO3)cc2)c1 (racemic) [Example 277, hydrochloride]", "result": "0.0036 µM"}
{"compound": "O=C(Nc1ccc([C@H]2CCCNC2)cc1)c1cccc(Cl)c1 [Example 151, hydrochloride]", "result": "0.0008 µM"}
{"compound": "Cc1cc(C(=O)Nc2ccc([C@@H]3CCCNC3)cc2)cc(Cl)n1", "result": "0.0048 µM"}
{"compound": "O=C(NCc1ccc([C@H]2CNCCO2)cc1)c1cccc(Cl)c1 [Example 318, hydrochloride]", "result": "0.0312 µM"}
{"compound": "COc1cccc(CC(=O)Nc2ccc(C3CCNC3)cc2)c1 (racemic) [Example 65, hydrochloride]", "result": "0.352 µM"}
{"compound": "Cc1ccc(C(=O)Nc2ccc(C3CNCCO3)cc2)cc1 (racemic) [Example 189, hydrochloride]", "result": "0.0016 µM"}
{"compound": "O=C(Nc1ccc(C2CCCNC2)cc1)c1ccc(Cl)cn1 (racemic) [Example 78, hydrochloride]", "result": "0.0466 µM"}
{"compound": "CCCc1ccc(C(=O)Nc2ccc(C3CCCNC3)cc2)cc1 (racemic) [Example 137, hydrochloride]", "result": "0.0015 µM"}
